// provenance: patent US20240043505A1

Give measured ELISA affinity for each item. Keep answers brief.
- subject.of.test: SARS-CoV-2 spike receptor-binding domain (RBD) (SARS-CoV-2, UniProt P0DTC2 319-541)
- assay.overview: indirect ELISA, RBD coated on plate, 4PL fit
Answers are plain numbers, in nM.

>  <binder>
Nb93 (VHH) VHH: EVQLVESGGGLVQPGGSLRLSCAASGFTFSSYAMSWVRQAPGKGREWVAGITPGSGTFYADSVKGRFTISRDNAKNTLSLEINSLKPEDTALYYCAKCRQEFSWDFSSRDPDDFDYWGQGTQVTVSS

>  <u>
nM

>  <ELISA affinity>
1.15

$$$$
>  <binder>
Nb83 (VHH) VHH: HVQLVESGGGLVQPGGSLRLSCAASGRSFNSYLMGWFRQAPGKEREFVAWISGSPHDIIRYRDSVKDRFTISRDNAKNTVYLQMNSLKPVDTAVYYCAVGSLRVGSFSPDYWGQGTQVTVSS

>  <u>
nM

>  <ELISA affinity>
1.51

$$$$
>  <binder>
Nb78 (VHH) VHH: QVQLVESGGGLVQAGGSLRLSCAISGASANRVGWFRRAPGKEREFVAAIGASGGMTNYLDSVKGRFTISRDNAKNTVYLQMNSLKPQDTAVYYCAARNIETAEYTYWGQGTQVTVSS

>  <u>
nM

>  <ELISA affinity>
0.61

$$$$

Now examine the next entry.
q: // query ELISA affinity value for entry Nb76 (VHH) VHH: DVQLVESGGGLVQAGGSLRLSCAVSGRTFSISTMGWFRQAPGKERLFVAGITWHDGSTNYADSVKGRFTISRDNAKNTVYLQMNSLKPEDTALYYCAARKSINYVQEYDYWGRGTQVTVSS
a: 0.17
